- procedure text: Plasma pharmacokinetics, Phase I open‐label two‐group fixed‐sequence drug‐drug interaction study
- experimental parameters: human, plasma, oral, C last, Group 2 Day 20, SMV + ODV; mean (SD)
measured property: concentration at 23.9 h

smi=COc1ccc2c(O[C@@H]3C[C@H]4C(=O)N[C@]5(C(=O)NS(=O)(=O)C6CC6)C[C@H]5/C=C\CCCCN(C)C(=O)[C@@H]4C3)cc(-c3nc(C(C)C)cs3)nc2c1C measured_property="concentration at 23.9 h" recorded_value="2140 ng/mL"

###

- procedure text: Plasma pharmacokinetics, Phase I open‐label two‐group fixed‐sequence drug‐drug interaction study
- experimental parameters: human, in vivo, T max, Group 2 Day 13, AL‐335 + ODV; median (range)
- Description: This was an open‐label, two‐group, fixed‐sequence study conducted at a single study center in Rennes, France (Biotrial). […] Plasma concentrations of AL‐335, ALS‐022399, ALS‐022227, odalasvir, and simeprevir were determined using validated liquid chromatography‐tandem mass spectrometry methods. […] The lower limit of quantification was 1 ng/mL, 2 ng/mL, and 5 ng/mL for AL‐335, ALS‐022399, and ALS‐022227, respectively, 1 ng/mL for odalasvir, and 2 ng/mL for simeprevir. […]
measured property: Tmax

molecule="CC(C)OC(=O)[C@H](C)N[P@](=O)(OC[C@@]1(F)O[C@@H](n2ccc(=O)[nH]c2=O)[C@](C)(O)[C@@H]1O)Oc1ccccc1 [AL‐335]" measured_property=Tmax recorded_value="2 h"
